# targetOrSystem: T1, CXCL8_HUMAN (human, UniProt P10145 28-99)
# T1 sequence: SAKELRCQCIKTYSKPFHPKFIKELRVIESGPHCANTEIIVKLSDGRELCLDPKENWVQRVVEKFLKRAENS
# protocolNotes: yeast surface display FACS re-test; further: test concentration or dose not given here
Measured % cells over threshold fluorescence, listed per entry for reference.
reportedEndpoint: % cells over threshold fluorescence (%)

P1172_IXORI (other) LHEDEIFTVDYCGTNCTKQSNGSWTTCPGNCSCYHEDGKTDGFCLSTEYTDFTQFPNLTSEEMDAATPRPE; 41
P1128_IXORI (other) KDDEHFSVDYCGMNCTQQEDGSWTACSGRNEECRCYHESGKKNGLCLSTTYIDFSQYGNPSDSDIAAASPRP; 53
P1174_IXORI (other) LNNENELFSVEYCGANCTQQDNGSWTKCKGNCTCYHEDGKRYGLCLSTEYTDFTQFPKPTSEEIADASPRPKETNSH; 29
